System: Plasmodium falciparum
procedure text: Antimalarial activity against chloroquine and mefloquine-resistant Plasmodium falciparum Dd2 assessed as [3H]-hypoxanthine incorporation after 48 hrs by liquid scintillation counting analysis
Assay type: functional
Would you mind telling me the reported IC50 of each entry?
Answer with a number only, understood to be in nM.

Prompt line: Item CNCCc1c[nH]c2c1C(=O)C1=C(NC=CS1(=O)=O)C2=O.Cl with Plasmodium falciparum - IC50?
Response line: 47

Prompt line: Item CNCCc1cn(C)c2c1C(=O)C1=C(NC=CS1(=O)=O)C2=O.Cl with Plasmodium falciparum - IC50?
Response line: 79

Prompt line: Item Cl.Cn1cc(CCN)c2c1C(=O)C1=C(C2=O)S(=O)(=O)C=CN1 with Plasmodium falciparum - IC50?
Response line: 57

Prompt line: Item Cn1cc(CCN)c2c1C(=O)C1=C(NC=CS1(=O)=O)C2=O with Plasmodium falciparum - IC50?
Response line: 162

Prompt line: Item Cl.NCCc1c[nH]c2c1C(=O)C1=C(NC=CS1(=O)=O)C2=O with Plasmodium falciparum - IC50?
Response line: 24
